Study Target: UniProtKB Q99571
Sequence (Q99571 whole entry): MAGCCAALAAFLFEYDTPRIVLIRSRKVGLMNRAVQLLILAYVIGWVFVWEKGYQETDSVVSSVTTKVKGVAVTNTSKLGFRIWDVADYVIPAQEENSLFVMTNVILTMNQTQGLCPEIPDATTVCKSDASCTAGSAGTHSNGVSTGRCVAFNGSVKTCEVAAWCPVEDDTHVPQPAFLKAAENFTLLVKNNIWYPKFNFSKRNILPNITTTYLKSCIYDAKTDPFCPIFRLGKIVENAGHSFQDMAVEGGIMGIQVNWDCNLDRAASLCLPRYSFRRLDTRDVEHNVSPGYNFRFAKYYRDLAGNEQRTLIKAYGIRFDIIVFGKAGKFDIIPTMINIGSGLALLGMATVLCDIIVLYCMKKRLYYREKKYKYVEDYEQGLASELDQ
Assay Text: Assay B: human P2X4 receptor cell line, mitochondrial photina luminescence (agonist Bz-ATP at EC50)
Type: cell-based
Design: host or cells: HEK 293 (recombinant, constitutively expressing; with mitochondrial photina in Assay B)
Test Settings: HEK human P2X4 cell line, photina luminescence, agonist Bz-ATP at EC50, average
pIC50: −log10 of the molar value.
Readout Label: pIC50

[
  {
    "Compound": "NS(=O)(=O)c1cc(NC(=O)Cc2ccccc2Cl)ccc1Oc1cccc(C(F)F)c1 [Example 031]",
    "Study Target": "UniProtKB Q99571",
    "pIC50": 6.91
  }
]

I. NS(=O)(=O)c1cc(NC(=O)Cc2ncccc2Cl)ccc1Oc1cccc(Cl)c1 [Example 112]
II. COc1ccccc1Oc1ccc(NC(=O)Cc2ccccc2Cl)cc1S(N)(=O)=O [Example 032]
III. NS(=O)(=O)c1cc(NC(=O)Cc2ccccc2Cl)cnc1Oc1cccc(C(F)(F)F)c1 [Example 168]
IV. COCCNC(=O)c1cccc(CC(=O)Nc2ccc(Oc3cccc(Cl)c3)c(S(N)(=O)=O)c2)c1 [Example 201]
V. NS(=O)(=O)c1cc(NC(=O)Cc2ccc(Cl)cn2)ccc1Oc1cccc(Cl)c1 [Example 209]
Falling order of pIC50, please. Please, when replying, give the labels in the order that was requested.
II, III, I, V, IV

src = patent US20180338980A1
